meta.source: ChEMBL document CHEMBL1124065

Test: Change in logarithm of partition coefficient of the compound
Type: physicochemical
Conditions: octanol/water
attribute_measured: delta Log P

The cases that follow already have their delta Log P on record.
*Q* delta Log P lookup needed for CN(C)Cc1ccc(CSCCNc2[nH]ccc2[N+](=O)[O-])o1 , thanks.
*A* 3.12

*Q* What does the data say about its delta Log P? Entry: O=[N+]([O-])c1cc[nH]c1NCCSCc1ncccc1Br
*A* 3.09

*Q* Report delta Log P for CC(=O)NCCCOc1cccc(CN2CCCCC2)c1 please.
*A* 1.93

P. CN(C)Cc1ccc(-c2cccc(Nc3[nH]ccc3[N+](=O)[O-])c2)o1
Q. c1cc(CN2CCCCC2)cc(OCCCNc2nc3ccccc3s2)c1 [ZOLANTIDINE]
R. N=C(N)Nc1nc(-c2cccc(N)c2)cs1
*Q* List the 3 entries from lowest delta Log P to highest delta Log P value. Kindly provide the labels arranged according to the requested ordering.
*A* Q, P, R
